system: MS2 coat protein; test: apparent KD of MS2 coat protein; designed switch direction (-1 OFF switch, 1 ON switch): -1; higher = weaker reporter binding; details: input ligand: FMN 200 uM
outcome-measure: apparent KD of MS2 coat protein (nM)
Reply numerically in nM, unit not repeated.

UAUUAGUAAGGAUAUCUCGUCAUGGACGUGAGUCCAUGACGAGAGAAGGUACAUGAGGAUCACCCAUGUCCAUU [Mod of Fisker 20 - Jieux - Exclusion 4] (Eterna round: R97, puzzle: Exclusion 4): 16.5

Form field apparent KD of MS2 coat protein, entry GAUCCGUUAGGAUAUGCGGGUGUCACCAGAGUGAUAGCCUCGCAGAAGGAACAUGAGGAUCACCCAUGUAGCAA [Eternabot (L1) Solution 92] (Eterna round: R97, puzzle: Exclusion 4) : 111
